tested on: MS2 coat protein; assay: apparent KD of MS2 coat protein; designed switch direction (-1 OFF switch, 1 ON switch): -1; higher = weaker reporter binding; conditions: input ligand: none
Rule: satisfied for apparent KD of MS2 coat protein not less than 20 nM, not satisfied for anything less.

CAUGAUUGGGAAGGAUAUUGACCUAGUUAGCGCCGAGAAGGUCCCUGUCACAUGAGGAUCACCCAUGUGAAUCUGGUGAAAGAG [Ex NG1 #93] (Eterna round: R96, puzzle: Exclusion NG 1) ... satisfied

Exam item: decide whether the reported apparent KD of MS2 coat protein for CGCCUGGGAGGAUAUCCAAUAUAUGACAUGAGGAUCACCCAUGUUUCCACUCGUACCUCCGGAGAAGGCCCGGCGC [Ex5 #30] (Eterna round: R97, puzzle: Exclusion 5) is at least 20 nM.
satisfied

Exam item: decide whether the reported apparent KD of MS2 coat protein for AGCUAAAUAGGAUAUGCCCGGGAUAACAUGAGGAUCACCCAUGUGACCGAUUCAUGUCCUGCAGAAGGAUUUGGGA [Mod of ViennaUCT 5 - Jieux - Exclusion 5] (Eterna round: R97, puzzle: Exclusion 5) is at least 20 nM.
not satisfied

Exam item: decide whether the reported apparent KD of MS2 coat protein for AUUUAGCAAGCGUGAUCCUACAUGAGGAUCACCCAUGUAGUUCGUCUUAUUUGAAGACAACACAAAAGUGUUGUCUU [Omei Mir OFFv1 B8] (Eterna round: R97, puzzle: Sensor, turn-off variant 1) is at least 20 nM.
satisfied

Exam item: decide whether the reported apparent KD of MS2 coat protein for GGCGAAGUAGGAUAUACAUGAGGAUCACCCAUGUUACCUGAUGGCGUAGGUCUUCUAUGUAGAAGGGCUACGCC [jl-ex3-4.36 ViennaUCT mod] (Eterna round: R97, puzzle: Exclusion 3) is at least 20 nM.
not satisfied

Exam item: decide whether the reported apparent KD of MS2 coat protein for AAUUAGUCAGGAUAUACAUGAGGAUCACCCAUGUAAACUUUUAGUUUAAUUUGAAUGUGUAGAAGGGACAUUUA [Ex3 #47] (Eterna round: R97, puzzle: Exclusion 3) is at least 20 nM.
satisfied

====

system: MS2 coat protein; test: apparent KD of MS2 coat protein; designed switch direction (-1 OFF switch, 1 ON switch): 1; higher = weaker reporter binding; details: input ligand: microRNA oligo, concentration not stated
Measurement Label: apparent KD of MS2 coat protein (nM)
Unit nM implied. Number only.

Below are worked cases with known answers.
AUAUAUAUAAGGAAGGAUAUCUUAGAAAAAACAUGAGGAUCACCCAUGUAAAUAAAGAAUAAAUGGGAGAAGGUCCAUAUAUAUA [77%, More Tesla, 10] (Eterna round: R96, puzzle: Same State 2) ... 22
GAGUGGAGGAGAGGAUAUACAAUGAUAAUCACAGUAGAAGGUUCUAACAUGAGGAUCACCCAUGUAGGACUAUACCUGAGAGAA [Parity 48 - Jieux - Same State NG 1] (Eterna round: R96, puzzle: Same State NG 1) ... 9.96
GCCGGCUAAUGAGGAUAUGGCACCUUAUUGGUGCCAGAAGGCAUGUCAAUUGACAUGAGGAUCACCCAUGUAUUAUAGUUGGCG [salish99_SSNG1_r04_603] (Eterna round: R96, puzzle: Same State NG 1) ... 211
GCCAUCGUGUGAGGAUAUGGCACCGAAACGGUGCCAGAAGGCAUGUCAAUUGACAUGAGGAUCACCCAUGUAUUAGCGAUGGCA [Mat - Same State NG 1 - JL mod - D86] (Eterna round: R96, puzzle: Same State NG 1) ... 994
AAAACAUGACGAGGAUAUGGUACAUGAGGAUCACCCAUGUAUGUACCACGACGGAAACGUCGAAUCCAGAAGGCGUCAUGAAAA [Mat - Same State NG 2 - JL mod - D25] (Eterna round: R96, puzzle: Same State NG 2) ... 173
AUUAUUUUUGCAGGAUAUGAUUAACAUGAGGAUCACCCAUGUGGUGUUGUGAGUAAGGAGAGUGAUCAGAAGGGCAUUUUUUUU [JMF's solution 60] (Eterna round: R96, puzzle: Same State NG 2) ... 410

What value of apparent KD of MS2 coat protein on MS2 coat protein does GGCCUCUGUCAAGGAUAUGCUACCGUUUCGGUAGCAGAAGGUGAUCACAUGAGGAUCACCCAUGUUUAGGCCCUCUGGCCCGCC (Eterna round: R96, puzzle: Same State NG 1) have?
330

What value of apparent KD of MS2 coat protein on MS2 coat protein does CUCCAUUGGGUAGGAUAUCUAGGAUAUGGGAAAGACUAAGUCUGUAGGUCACCUAACCCAGAUGGAGAGAAGGACCCAACUCUC [pwkr ssNG2 2FMN + F9.41] (Eterna round: R96, puzzle: Same State NG 2) have?
2.07

What value of apparent KD of MS2 coat protein on MS2 coat protein does GGCUGCAAUUAUGAGGAUAUGUUCGGAUGAACAUGAGGAUCACCCAUGUGGCGAUAGCUAUCUGUGCAGAAGGUGUAGUGGUAGC [Edlexete] (Eterna round: R96, puzzle: Same State 2) have?
90.7

Source of measurements: the supplement of paper PMC9170038
